Consider the following binders; for each one, report its Kd.
- TARGET_UNDER_TEST: T1, E. coli derived recombinant human mesothelin (human, UniProt Q13421 296-580)
- T1 construct: not shown: N-terminal unizyme His (HQ)-tag
- ASSAY_NAME: Biacore-2000, IgG over immobilised E. coli derived human mesothelin, 1:1 fit
Write the value in nM as a bare number.

Query: State its Kd for this binder: 7D9.v6 (antibody, V domains shown) VH: EVQLVESGGGLVQPGGSLRLSCAASGYTFTTYWMHWVRQAPGKGLEWVGYIRPSTGYTEYNQKFKDRFTISADTSKNTAYLQMNSLRAEDTAVYYCARSRWLLDYWGQGTLVTVS VL: DIQMTQSPSSLSASVGDRVTITCKSSQSVLYSSNQKNYLAWYQQKPGKAPKLLIYWASTRESGVPSRFSGSGSGTDFTLTISSLQPEDFATYFCHQYLSSYTFGQGTKVEIK
Reply: 4.08

Query: State its Kd for this binder: humanized monoclonal antibody 7D9.v3 (antibody, V domains shown, also called h7D9.v3; hu7D9.v3) VH: EVQLVESGGGLVQPGGSLRLSCAASGYTFTTYWMHWVRQAPGKGLEWVGYIRPSTGYTEYNQKFKDRFTISADTSKNTAYLQMNSLRAEDTAVYYCARSRWLLDYWGQGTLVTVS VL: DIQMTQSPSSLSASVGDRVTITCKSSQSVLYSSNQKNYLAWFQQKPGKAPKLLIYWASTRESGVPSRFSGSGSGTDFTLTISSLQPEDFATYFCHQYLSSYTFGQGTKVEIKR
Reply: 1.9

Query: State its Kd for this binder: chimeric 7D9 (antibody, V domains shown, also called ch7D9; mu7D9 (formatted as a chimeric 7D9)) VH: QVQLQQSGAELAKPGASVKMSCKASGYTFTTYWMHWVKQRPGQGLEWIGYIRPSTGYTEYNQKFKDKATLTADKSSSTAYMQLSSLTSEDSTVYYCARSRWLLDYWGQGTSLTVS VL: DIMMTQSPSSLAVSAGEKVTMSCKSSQSVLYSSNQKNYLAWFQQKPGQSPKLLIYWASTRESGVPDRFTGSGSGTDFTLTISSVQAEDLAVYFCHQYLSSYTFGGGTKVEIK
Reply: 1.84

Query: State its Kd for this binder: 7D9.v5 (antibody, V domains shown) VH: EVQLVESGGGLVQPGGSLRLSCAASGYTFTTYWMHWVRQAPGKGLEWVGYIRPSTGYTEYNQKFKDRFTISADTSKNTAYLQMNSLRAEDTAVYYCARSRWLLDYWGQGTLVTVS VL: DIQMTQSPSSLSASVGDRVTITCKSSQSVLYSSNQKNYLAWFQQKPGKAPKLLIYWASTRESGVPSRFSGSGSGTDFTLTISSLQPEDFATYYCHQYLSSYTFGQGTKVEIK
Reply: 3.49

Query: State its Kd for this binder: 7D9.v1 (antibody, V domains shown, also called direct-graft 7D9.v1) VH: EVQLVESGGGLVQPGGSLRLSCAASGYTFTTYWMHWVRQAPGKGLEWVGYIRPSTGYTEYNQKFKDRFTISADTSKNTAYLQMNSLRAEDTAVYYCARSRWLLDYWGQGTLVTVS VL: DIQMTQSPSSLSASVGDRVTITCKSSQSVLYSSNQKNYLAWYQQKPGKAPKLLIYWASTRESGVPSRFSGSGSGTDFTLTISSLQPEDFATYYCHQYLSSYTFGQGTKVEIK
Reply: 3.98
